- System: Pseudomonas aeruginosa
- assay.notes: Antimicrobial activity against Pseudomonas aeruginosa ATCC 15442 at 25 ug per disk after 18 hrs by disk diffusion method
- Format: functional, organism-based
The source made the active and inactive calls. The rule behind the calls is not given here.

molecule	Activity
C/C=C(\NC(=O)[C@@H](NC(=O)CNC(=O)C(C)(O)C(O)/C=C\C(C)=C\C(C)CC)[C@@H](C)O)C(=O)N[C@H](C(=O)N[C@H]1C(=O)N[C@H](COC)C(=O)NCC(=O)N[C@@H](C)C(=O)N(C)[C@@H]([C@@H](C)O)C(=O)N[C@H]([C@H](OC)c2ccc(O[C@@H]3O[C@@H](C)[C@H](O)[C@@H](O)[C@H]3O)cc2)C(=O)N2CC[C@H](Cl)C[C@H]2C(=O)O[C@@H]1C(C)C)[C@@H](C)[C@@H](C)C(N)=O (stereo partly drawn) [MIRABAMIDE B]	inactive
CCC(C)/C=C(C)/C=C\C(O)C(C)(O)C(=O)NCC(=O)N[C@H](C(=O)N[C@H](C(=O)N[C@H](C(=O)N[C@H]1C(=O)N[C@H](COC)C(=O)NCC(=O)N[C@@H](C)C(=O)N(C)[C@@H]([C@@H](C)O)C(=O)N[C@H]([C@H](OC)c2ccc(O[C@@H]3O[C@@H](C)[C@H](O)[C@@H](O)[C@H]3O)cc2)C(=O)N2CC[C@H](Cl)C[C@H]2C(=O)O[C@@H]1C(C)C)[C@@H](C)[C@@H](C)C(N)=O)[C@@H](C)N)[C@@H](C)O (stereo partly drawn) [MIRABAMIDE A]	inactive
CCC(C)/C=C(C)/C=C\C(O)C(C)(O)C(=O)NCC(=O)N[C@H](C(=O)N[C@H](C(=O)N[C@H](C(=O)N[C@H]1C(=O)N[C@H](COC)C(=O)NCC(=O)N[C@@H](C)C(=O)N(C)[C@@H]([C@@H](C)O)C(=O)N[C@H]([C@H](OC)c2ccc(O)cc2)C(=O)N2CCCC[C@H]2C(=O)O[C@@H]1C(C)C)[C@@H](C)[C@@H](C)C(N)=O)[C@@H](C)N)[C@@H](C)O (stereo partly drawn) [PAPUAMIDE A]	inactive

----------
- assay.notes: Cytotoxicity against african green monkey BSC1 cells after 3 hrs by MTT assay
- Format: cell-based
- measurement.conditions: chlorocebus aethiops, bsc-1, 3 h
readout.label: Activity

compound	readout.label	test.result
CCC(C)/C=C(C)/C=C\C(O)C(C)(O)C(=O)NCC(=O)N[C@H](C(=O)N[C@H](C(=O)N[C@H](C(=O)N[C@H]1C(=O)N[C@H](COC)C(=O)NCC(=O)N[C@@H](C)C(=O)N(C)[C@@H]([C@@H](C)O)C(=O)N[C@H]([C@H](OC)c2ccc(O)cc2)C(=O)N2CCCC[C@H]2C(=O)O[C@@H]1C(C)C)[C@@H](C)[C@@H](C)C(N)=O)[C@@H](C)N)[C@@H](C)O (stereo partly drawn) [PAPUAMIDE A]	Activity	Non-toxic
CCC(C)/C=C(C)/C=C\C(O)C(C)(O)C(=O)NCC(=O)N[C@H](C(=O)N[C@H](C(=O)N[C@H](C(=O)N[C@H]1C(=O)N[C@H](COC)C(=O)NCC(=O)N[C@@H](C)C(=O)N(C)[C@@H]([C@@H](C)O)C(=O)N[C@H]([C@H](OC)c2ccc(O[C@@H]3O[C@@H](C)[C@H](O)[C@@H](O)[C@H]3O)cc2)C(=O)N2CC[C@H](Cl)C[C@H]2C(=O)O[C@@H]1C(C)C)[C@@H](C)[C@@H](C)C(N)=O)[C@@H](C)N)[C@@H](C)O (stereo partly drawn) [MIRABAMIDE A]	Activity	Non-toxic
CCC(C)/C=C(C)/C=C\C(O)C(C)(O)C(=O)NCC(=O)N[C@H](C(=O)N[C@H](C(=O)N[C@H](C(=O)N[C@H]1C(=O)N[C@H](COC)C(=O)NCC(=O)N[C@@H](C)C(=O)N(C)[C@@H]([C@@H](C)O)C(=O)N[C@H]([C@H](OC)c2ccc(O[C@@H]3O[C@@H](C)[C@H](O)[C@@H](O)[C@H]3O)cc2)C(=O)N2CCCC[C@H]2C(=O)O[C@@H]1C(C)C)[C@@H](C)[C@@H](C)C(N)=O)[C@@H](C)N)[C@@H](C)O (stereo partly drawn) [MIRABAMIDE D]	Activity	Non-toxic
